Where these numbers come from: ChEMBL document CHEMBL1125826

system: Staphylococcus aureus; assay: Antibacterial activity was determined against gram positive organism, Staphylococcus aureus H228; assay type: functional; details: Staphylococcus aureus; read-out: MIC
quantityMeasured: MIC
Please answer using a numeric value trailed by its unit.

Data request: So what does the record say about MIC for CCn1cc(C(=O)O)c(=O)c2cc(F)c(N3CCNC(C)C3)c(Cl)c21 (configuration not stated) ?
Data returned: 1.6 µg/mL

Data request: What MIC value was documented for this molecule, CCNCC1CCN(c2c(F)cc3c(=O)c(C(=O)O)cn(CC)c3c2F)C1 (configuration not stated) [MERAFLOXACIN] ?
Data returned: 0.1 µg/mL

Data request: Consider the molecule shown here: CC1COc2c(N3CCC(N)C3)c(F)c(N)c3c(=O)c(C(=O)O)cn1c23 (configuration not stated) What is its recorded MIC?
Data returned: 0.8 µg/mL

Data request: What measured MIC goes with CCn1cc(C(=O)O)c(=O)c2cc(F)c(N3CCNCC3)c(F)c21 ?
Data returned: 1.6 µg/mL

Data request: Give its MIC value. Item: CCNCC1CCN(c2c(F)cc3c(=O)c(C(=O)O)cn(CC)c3c2Cl)C1 (configuration not stated)
Data returned: 0.1 µg/mL

Data request: Data request, read-out MIC, for CCn1cc(C(=O)O)c(=O)c2c(N)c(F)c(N3CC(C)NC(C)C3)c(F)c21 (configuration not stated)
Data returned: 1.6 µg/mL

Data request: Entry CCn1cc(C(=O)O)c(=O)c2cc(F)c(N3CC(C)NC(C)C3)c(Cl)c21 (configuration not stated) : reported MIC = ?
Data returned: 3.1 µg/mL

Data request: Return reported MIC; argument: CCn1cc(C(=O)O)c(=O)c2c(O)c(F)c(N3CCC(N)C3)c(F)c21 (configuration not stated)
Data returned: 1.6 µg/mL

Data request: // returns reported MIC for input Nc1c(F)c(N2CCNCC2)cc2c1c(=O)c(C(=O)O)cn2C1CC1
Data returned: 0.1 µg/mL

Data request: Which measured MIC value corresponds to CCn1cc(C(=O)O)c(=O)c2c(O)c(F)c(N3CCNCC3)c(F)c21 ?
Data returned: 12.5 µg/mL

Data request: For CCn1cc(C(=O)O)c(=O)c2c(O)c(F)c(N3CC(C)NC(C)C3)c(F)c21 (configuration not stated) , what is its reported MIC?
Data returned: 6.3 µg/mL

Data request: Which MIC value is on record for CCNCC1CCN(c2cc3c(c(N)c2F)c(=O)c(C(=O)O)cn3CC)C1 (configuration not stated) ?
Data returned: 0.8 µg/mL
